All figures here come from ChEMBL document CHEMBL2380302.

- System: HL-60
- Assay Details: Cytotoxicity against human HL60 cells after 48 hrs by SRB assay
- Type: functional, cell-based
- Protocol Conditions: HL-60, 48 h
Examples of compounds with documented pIC50 follow.
# pIC50: negative log10 of molar concentration; output just the value

Worked cases, answers included:
C=C(C)[C@@H]1CC[C@]2(C(=O)O)CC[C@]3(C)[C@H](CC[C@@H]4[C@@]5(C)CC[C@H](OCc6cn(-c7ccc8c(c7)OCO8)nn6)C(C)(C)[C@@H]5CC[C@]43C)[C@@H]12 ... 4.52
C=C(C)[C@@H]1CC[C@]2(C(=O)O)CC[C@]3(C)[C@H](CC[C@@H]4[C@@]5(C)CC[C@H](OCc6cn(-c7cc(C)cc(O)c7)nn6)C(C)(C)[C@@H]5CC[C@]43C)[C@@H]12 ... 4.85
C=C(C)[C@@H]1CC[C@]2(C(=O)O)CC[C@]3(C)[C@H](CC[C@@H]4[C@@]5(C)CC[C@H](OCc6cn(-c7cc(OC)c(OC)c(OC)c7)nn6)C(C)(C)[C@@H]5CC[C@]43C)[C@@H]12 ... 4.43
C=C(C)[C@@H]1CC[C@]2(C(=O)O)CC[C@]3(C)[C@H](CC[C@@H]4[C@@]5(C)CC[C@H](OCc6cn(-c7cccc8c(O)cccc78)nn6)C(C)(C)[C@@H]5CC[C@]43C)[C@@H]12 ... 5.46
C=C(C)[C@@H]1CC[C@]2(C(=O)O)CC[C@]3(C)[C@H](CC[C@@H]4[C@@]5(C)CC[C@H](OCc6cn(-c7cc(I)ccc7C)nn6)C(C)(C)[C@@H]5CC[C@]43C)[C@@H]12 ... 4.74

Ask: For the compound shown here, C=C(C)[C@@H]1CC[C@]2(C(=O)O)CC[C@]3(C)[C@H](CC[C@@H]4[C@@]5(C)CC[C@H](OCc6cn(C7O[C@H](COC(C)=O)[C@@H](OC(C)=O)[C@H](OC(C)=O)[C@H]7OC(C)=O)nn6)C(C)(C)[C@@H]5CC[C@]43C)[C@@H]12 (stereo not given in full) , give the reported pIC50.
Reply: 5.10

Ask: What pIC50 value was documented for this compound, C=C(C)[C@@H]1CC[C@]2(C(=O)O)CC[C@]3(C)[C@H](CC[C@@H]4[C@@]5(C)CC[C@H](OCc6cn(C7O[C@H](COC(C)=O)[C@H](OC(C)=O)[C@H](OC(C)=O)[C@H]7OC(C)=O)nn6)C(C)(C)[C@@H]5CC[C@]43C)[C@@H]12 (stereo not given in full) ?
Reply: 5.26

Ask: I am curious: what pIC50 value has been reported for C=C(C)[C@@H]1CC[C@]2(C(=O)O)CC[C@]3(C)[C@H](CC[C@@H]4[C@@]5(C)CC[C@H](OCc6cn(-c7ccc(C(=O)c8ccccc8)cc7)nn6)C(C)(C)[C@@H]5CC[C@]43C)[C@@H]12 ?
Reply: 4.40

Ask: I have this compound here, C=C(C)[C@@H]1CC[C@]2(C(=O)O)CC[C@]3(C)[C@H](CC[C@@H]4[C@@]5(C)CC[C@H](OCc6cn(-c7ccccc7C#N)nn6)C(C)(C)[C@@H]5CC[C@]43C)[C@@H]12 , and I need its recorded pIC50.
Reply: 5.60

Ask: Looking for the measured pIC50 of C=C(C)[C@@H]1CC[C@]2(C(=O)O)CC[C@]3(C)[C@H](CC[C@@H]4[C@@]5(C)CC[C@H](OCc6cn(-c7cccc(CO)c7)nn6)C(C)(C)[C@@H]5CC[C@]43C)[C@@H]12 , can you help?
Reply: 5.15
